Target: GMPPNP-loaded H-Ras or GTP-loaded K-Ras
Experiment: FP competition, displacement of probe R4007 from Ras
*1 amine or outer side, *2 acyl side, *3 side chain or, on linkers, in order; H or OH if unused. Bridges are numbered along the chain shown (N, C = ends). Where no end group is shown, it is not given here. [ ]: non-standard residue; d: D form. The star is where a group is joined. TDSPA = (R)-2-amino-3-(tert-butyldisulfanyl)propanoic acid, CC(C)(C)SSC[C@H](N[*:1])C(=O)[*:2]; DABAC1 = (S)-4-acrylamido-2-aminobutanoic acid, C=CC(=O)NCC[C@H](N[*:1])C(=O)[*:2]; Trp(7-aza) = N[C@@H](Cc1c[nH]c2ncccc12)C(=O)O; NMePhe(4-F) = CN[C@@H](Cc1ccc(F)cc1)C(=O)O; ivDde = CC(C)CC(=C1C(=O)CC(C)(C)CC1=O)*; mXylylene = c1cc(C[*:1])cc(C[*:2])c1; Phg = N[C@H](C(=O)O)c1ccccc1; Tle = CC(C)(C)[C@H](N)C(=O)O; NMeA = CN[C@@H](C)C(=O)O; Pra = C#CC[C@H](N)C(=O)O; Nva = CCC[C@H](N)C(=O)O; AEEA = NCCOCCOCC(=O)O; Sar = CNCC(=O)O
test-readout: IC50 (nM)
Return type: number; implicit unit nM.

Name the recorded IC50 for Ac-[Nva]CY[Tle]KH[NMeA][Phg][Trp(7-aza)]Y[NMePhe(4-F)][Sar]C[dS]KG[TDSPA]VVL (linker 2-13 via mXylylene) [R4110] .
16.4

What would you report for Ac-[Nva]CY[Tle]A[DABAC1][NMeA][Phg][Trp(7-aza)]Y[NMePhe(4-F)][Sar]C-NH2 (linker 2-13 via mXylylene; SMILES C=CC(=O)NCC[C@@H]1NC(=O)[C@H](C)NC(=O)[C@H](C(C)(C)C)NC(=O)[C@H](Cc2ccc(O)cc2)NC(=O)[C@@H](NC(=O)[C@H](CCC)NC(C)=O)CSCc2cccc(c2)CSC[C@@H](C(N)=O)NC(=O)CN(C)C(=O)[C@H](Cc2ccc(F)cc2)N(C)C(=O)[C@H](Cc2ccc(O)cc2)NC(=O)[C@H](Cc2c[nH]c3ncccc23)NC(=O)[C@H](c2ccccc2)NC(=O)[C@H](C)N(C)C1=O) [R4146] ?
3390

What would you report for Ac-SCY[Tle]KH[NMeA][Phg][Trp(7-aza)]Y[NMePhe(4-F)][Sar]C-NH2 (linker 2-13 via mXylylene; SMILES CC(=O)N[C@@H](CO)C(=O)N[C@H]1CSCc2cccc(c2)CSC[C@@H](C(N)=O)NC(=O)CN(C)C(=O)[C@H](Cc2ccc(F)cc2)N(C)C(=O)[C@H](Cc2ccc(O)cc2)NC(=O)[C@H](Cc2c[nH]c3ncccc23)NC(=O)[C@H](c2ccccc2)NC(=O)[C@H](C)N(C)C(=O)[C@H](Cc2c[nH]cn2)NC(=O)[C@H](CCCCN)NC(=O)[C@H](C(C)(C)C)NC(=O)[C@H](Cc2ccc(O)cc2)NC1=O) [R4104] ?
3.29

What would you report for cyclo([AEEA]Y[Tle]KH[NMeA][Phg][Trp(7-aza)]Y[NMePhe(4-F)][Sar][Pra]) (SMILES C#CC[C@@H]1NC(=O)CN(C)C(=O)[C@H](Cc2ccc(F)cc2)N(C)C(=O)[C@H](Cc2ccc(O)cc2)NC(=O)[C@H](Cc2c[nH]c3ncccc23)NC(=O)[C@H](c2ccccc2)NC(=O)[C@H](C)N(C)C(=O)[C@H](Cc2c[nH]cn2)NC(=O)[C@H](CCCCN)NC(=O)[C@H](C(C)(C)C)NC(=O)[C@H](Cc2ccc(O)cc2)NC(=O)COCCOCCNC1=O) [R4130] ?
268

What would you report for Ac-[Nva]CY[Tle]K(ivDde)H[NMeA][Phg][Trp(7-aza)]Y[NMePhe(4-F)][Sar]C (linker 2-13 via m‑xylylene) [R4135] ?
364
